- Assayed system: Nav1.7 (Homo sapiens (Human), UniProt Q15858)
- Sequence (Q15858 whole entry): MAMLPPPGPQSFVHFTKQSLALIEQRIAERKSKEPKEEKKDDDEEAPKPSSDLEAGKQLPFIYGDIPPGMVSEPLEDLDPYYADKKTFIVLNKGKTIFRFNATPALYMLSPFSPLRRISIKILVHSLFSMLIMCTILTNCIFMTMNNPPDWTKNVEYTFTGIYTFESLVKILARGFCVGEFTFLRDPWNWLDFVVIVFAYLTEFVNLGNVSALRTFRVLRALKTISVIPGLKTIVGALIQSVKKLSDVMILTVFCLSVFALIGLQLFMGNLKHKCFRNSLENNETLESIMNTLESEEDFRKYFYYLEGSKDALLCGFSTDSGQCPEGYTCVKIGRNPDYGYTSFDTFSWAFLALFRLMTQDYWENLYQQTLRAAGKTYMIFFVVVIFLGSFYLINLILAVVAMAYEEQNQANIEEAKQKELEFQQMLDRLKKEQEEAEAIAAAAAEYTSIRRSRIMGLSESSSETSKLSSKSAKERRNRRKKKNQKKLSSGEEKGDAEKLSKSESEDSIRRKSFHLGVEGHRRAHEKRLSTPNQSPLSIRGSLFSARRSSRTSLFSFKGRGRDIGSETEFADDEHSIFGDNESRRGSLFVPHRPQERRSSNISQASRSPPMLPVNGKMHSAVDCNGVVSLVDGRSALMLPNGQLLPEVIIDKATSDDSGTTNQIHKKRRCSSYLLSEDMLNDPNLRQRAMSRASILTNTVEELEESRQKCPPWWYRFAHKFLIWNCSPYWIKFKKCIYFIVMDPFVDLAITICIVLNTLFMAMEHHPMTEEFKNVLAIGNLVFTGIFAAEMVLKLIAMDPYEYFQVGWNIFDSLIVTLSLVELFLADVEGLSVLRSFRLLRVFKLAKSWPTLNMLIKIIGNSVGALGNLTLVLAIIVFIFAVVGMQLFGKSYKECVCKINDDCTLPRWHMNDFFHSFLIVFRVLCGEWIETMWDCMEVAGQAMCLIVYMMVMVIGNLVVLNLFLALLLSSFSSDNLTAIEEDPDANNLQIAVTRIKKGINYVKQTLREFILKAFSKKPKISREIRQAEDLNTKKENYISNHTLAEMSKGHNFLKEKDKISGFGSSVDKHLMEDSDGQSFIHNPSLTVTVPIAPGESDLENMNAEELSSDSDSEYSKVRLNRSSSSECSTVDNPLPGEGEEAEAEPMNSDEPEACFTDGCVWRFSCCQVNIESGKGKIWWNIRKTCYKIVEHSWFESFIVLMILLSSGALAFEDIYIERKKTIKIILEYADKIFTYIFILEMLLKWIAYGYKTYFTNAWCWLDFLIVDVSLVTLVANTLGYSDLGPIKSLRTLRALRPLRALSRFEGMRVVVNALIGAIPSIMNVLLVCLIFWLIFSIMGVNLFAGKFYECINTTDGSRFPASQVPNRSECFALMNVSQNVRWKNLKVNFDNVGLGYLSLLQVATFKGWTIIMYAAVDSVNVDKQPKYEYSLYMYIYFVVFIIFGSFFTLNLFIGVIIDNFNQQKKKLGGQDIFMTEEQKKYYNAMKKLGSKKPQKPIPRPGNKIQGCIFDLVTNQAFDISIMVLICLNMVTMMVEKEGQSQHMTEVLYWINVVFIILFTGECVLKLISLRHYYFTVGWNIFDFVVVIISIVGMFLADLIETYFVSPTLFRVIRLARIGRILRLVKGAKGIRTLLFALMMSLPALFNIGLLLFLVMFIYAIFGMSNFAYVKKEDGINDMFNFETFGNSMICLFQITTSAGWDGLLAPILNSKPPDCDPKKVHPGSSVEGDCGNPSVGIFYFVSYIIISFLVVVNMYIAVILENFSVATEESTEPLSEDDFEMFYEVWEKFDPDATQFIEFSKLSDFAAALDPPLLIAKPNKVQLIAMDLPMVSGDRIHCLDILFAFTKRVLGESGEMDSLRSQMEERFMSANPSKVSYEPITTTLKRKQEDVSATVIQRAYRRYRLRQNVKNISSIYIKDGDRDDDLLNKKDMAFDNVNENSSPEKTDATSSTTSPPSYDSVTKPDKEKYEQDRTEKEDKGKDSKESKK
- Assay protocol: EFS-FRET assay
- Format: cell-based
- Run conditions: EFS-FRET, CHO cells expressing human Nav1.7; read-out: IC50 against Nav1.7
pIC50: −log10 of the molar value.
Observable: pIC50

> print(dat)
                                    compound  reported.value
 1  Cc1cc(C(=O)NCCOc2ccc(OC(F)(F)F)cc2Cl)cc(NC(=O)C2CC2)n1 [Example 115]          > 6.30
 2  CCC(=O)Nc1cc(C(=O)N[C@H](C)COc2ncc(C(F)(F)F)cc2Cl)ccn1 [Example 64]          > 6.30
 3  CC(=O)Nc1cc(C(=O)NCCOc2cccc(OC(F)(F)F)c2)cc(C)n1 [Example 19]          > 6.30
 4  CCC(=O)Nc1cc(C(=O)NCCOc2ccc(OC(F)(F)F)cc2Cl)cc(C)n1 [Example 105]          > 6.30
 5  CC(C)C(=O)Nc1cc(C(=O)NCCOc2ccnc3cc(C(F)(F)F)ccc23)ccn1 [Example 80]          > 6.30
 6  CCC(=O)Nc1cc(C(=O)NCCOc2ccc3cc(C(F)(F)F)ccc3n2)cc(C)n1 [Example 44]          > 6.30
 7  CC(C)C(=O)Nc1cc(C(=O)NCCOc2ccc(C(F)(F)F)cc2Cl)ccn1 [Example 22]          > 6.30
 8  Cc1cc(C(=O)NCCNc2ncc(C(F)(F)F)cc2Cl)cc(NC(=O)C2CC2)n1 [Example 26]          > 6.30
 9  CCC(=O)Nc1cc(C(=O)NCCOc2ccc(C(F)(F)F)cc2C)cc(C)n1 [Example 141]          > 6.30
10  CC(=O)Nc1cc(C(=O)NCCOc2ccc(S(F)(F)(F)(F)F)cc2)cc(C)n1 [Example 31]          > 6.30
11  CCC(=O)Nc1cc(C(=O)NCCOc2ccc(C(F)(F)F)cc2Cl)cc(C)n1 [Example 39]          > 6.30
12  Cc1cc(C(=O)NCCOc2ncc(C(F)(F)F)cc2Cl)nc(NC(=O)C(C)C)n1 [Example 90]          > 6.30
13  CC(=O)Nc1cc(C(=O)NCCOc2ccc(C(F)(F)F)cc2F)cc(C)n1 [Example 93]          > 6.30
14  C[C@H](COc1ncc(C(F)(F)F)cc1Cl)NC(=O)c1ccnc(NC(=O)C2CC2)n1 [Example 71]          > 6.30
15  CCC(=O)Nc1cc(C(=O)NC[C@@H](C)Oc2ncc(C(F)(F)F)cc2Cl)cc(C)n1 [Example 74]          > 6.30
16  O=C(NCCNc1ncc(C(F)(F)F)cc1Cl)c1ccnc(NC(=O)C2CC2)n1 [Example 38]          > 6.30
17  O=C(NCCOc1ccc(S(F)(F)(F)(F)F)cc1)c1ccnc(NC(=O)C2CC2)c1 [Example 33]          > 6.30

* * *

- Assayed system: Nav1.7 (Homo sapiens (Human), UniProt Q15858)
- Assay protocol: EFS-FRET assay
- Assay type: cell-based
- Run conditions: Table 1; read-out: Nav1.7 activity (IC50)
Observable: IC50 (nM)

> print(dat)
                                   compound  unit.spec  inequality.sign  reported.value
1  O=C(NCCOc1ncc(C(F)(F)F)cc1Cl)c1ncccc1Cl [No. 1-3, reference compound]         nM                >            3000
2  O=C(NCCOc1ncc(C(F)(F)F)cc1Cl)c1cccnc1C(F)(F)F [No. 1-63, reference compound]         nM                >            3000
3  Cc1cc(C(=O)NCCOc2ncc(C(F)(F)F)cc2Cl)cc(NC(=O)C(C)C)n1 [Example 35]         nM                =             190
4  CC(C)C(=O)Nc1cc(C(=O)NCCOc2ncc(C(F)(F)F)cc2Cl)ccn1 [Example 13]         nM                =             370

* * *

- Assayed system: Nav1.7 (Homo sapiens (Human), UniProt Q15858)
- Assay protocol: Electrophysiology assay, whole cell patch clamp, affinity to inactivated state
- Format: cell-based
- Run conditions: read-out: activities (Ki) against Nav1.7
pKi: −log10 of the molar value.
Observable: pKi

> print(dat)
                                smiles.text  observable  reported.value
1  CCC(=O)Nc1cc(C(=O)NCCNc2ncc(C(F)(F)F)cc2Cl)ccn1         pKi            6.02
2  CC(=O)Nc1cc(C(=O)NCCNc2ncc(C(F)(F)F)cc2Cl)cc(C)n1         pKi            6.28

* * *

- Assayed system: Nav1.7 (Homo sapiens (Human), UniProt Q15858)
- Assay protocol: EFS-FRET assay
- Format: cell-based
- Run conditions: EFS-FRET, CHO cells expressing human Nav1.7; read-out: IC50 against Nav1.7
- Procedure: This screen is used to determine the effects of compounds on human Nav1.7 channels, utilizing electrical field stimulation (EFS) system in 96-well plate format on FDSS (Hamamatsu Photonics) platform. The change of membrane potential is monitored with FRET dye pair, DiSBAC2(3) and PTS 18. […] The data are analyzed and reported as normalized ratios of intensities measured at […]. […] FDSS generated data. Fluorescence ratio values are plotted using XLfit to determine an IC50 value for each, compound.
pIC50: −log10 of the molar value.
Observable: pIC50

> print(dat)
                                smiles.text  observable  reported.value
1  Cc1cc(C(=O)NCCOc2ncc(C(F)(F)F)cc2Cl)cc(NC(=O)C2CC2)n1       pIC50          > 6.30
2  CCC(=O)Nc1cc(C(=O)N[C@H](C)COc2ncc(C(F)(F)F)cc2Cl)cc(C)n1       pIC50          > 6.30
3  O=C(NCCOc1ccc(OC(F)(F)F)c(F)c1)c1ccnc(NC(=O)C2CC2)c1       pIC50          > 6.30
4  Cc1cc(C(F)(F)F)ccc1OCCNC(=O)c1ccnc(NC(=O)C(C)C)c1       pIC50          > 6.30
5  CCC(=O)Nc1cc(C(=O)NCCCNc2ncc(C(F)(F)F)cc2Cl)ccn1       pIC50          > 6.30
6  Cc1cc(C(=O)NCCOc2ncc(C(F)(F)F)cc2Cl)nc(NC(=O)C2CC2)n1       pIC50          > 6.30
7  COc1cc(C(F)(F)F)ccc1OCCNC(=O)c1cc(C)nc(NC(=O)C(C)C)c1       pIC50          > 6.30
8  CC(C)C(=O)Nc1cc(C(=O)NCCOc2ccc(OC(F)(F)F)c(F)c2)ccn1       pIC50          > 6.30
